# Experimental System: T1, soluble recombinant human uPAR/His6 (R&D Systems, Cat. # 807-UK-100) (human, UniProt Q03405 23-303)
# T1 construct: range 1-303; Bought protein; also called soluble uPAR; hu-uPAR
# T1 sequence (Q03405 other isoform, or with tags, fused parts or gaps limits assumed, form in doubt): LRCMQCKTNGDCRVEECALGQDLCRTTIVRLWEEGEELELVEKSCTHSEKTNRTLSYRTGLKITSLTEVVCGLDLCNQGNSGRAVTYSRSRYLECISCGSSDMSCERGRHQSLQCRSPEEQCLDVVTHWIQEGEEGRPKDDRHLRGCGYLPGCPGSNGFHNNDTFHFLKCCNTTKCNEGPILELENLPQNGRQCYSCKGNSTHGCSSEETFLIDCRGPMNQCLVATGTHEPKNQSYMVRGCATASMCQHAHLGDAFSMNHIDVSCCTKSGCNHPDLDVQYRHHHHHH
# Assay Text: limited antigen ELISA, uPAR coat 20 ng/mL, sample 1:25
Listing of recorded LA at 20 ng/ml by entry.
Could you respond with only the numeric value?

anti-uPAR monoclonal antibody 1.61.1 (antibody, V domains shown) VH: EVQLVESGGGLVQPGGSLRLSCAASGFTFSSYDMHWVRQATGKGLEWVSAIGTAGDTYYPGSVKGRFTISRENAKNSLYLQMNSLRAGDTAVYYCAREGDYSNYFTRVRGVTYGMDVWGQGTTVTVSS VL: DIQMTQSPSSLSASVGDRVTITCRASQGISKYLAWFQQKPGKAPKSLIYGASSLQSGVPSKFSGSGSGTDFTLTISSLQPEDFATYYCQQYNSYPLTFGGGTKVEIK
0.27
anti-uPAR monoclonal antibody 4.19.1 (antibody, V domains shown) VH: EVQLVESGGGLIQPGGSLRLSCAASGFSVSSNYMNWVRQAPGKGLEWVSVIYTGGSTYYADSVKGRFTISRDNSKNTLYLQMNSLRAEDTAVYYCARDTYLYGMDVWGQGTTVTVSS VL: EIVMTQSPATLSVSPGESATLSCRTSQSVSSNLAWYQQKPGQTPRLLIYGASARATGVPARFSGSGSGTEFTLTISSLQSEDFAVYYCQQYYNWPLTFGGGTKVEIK
0.16
anti-uPAR monoclonal antibody 1.113.2 (antibody, V domains shown) VH: QVQLVESGGGVVQPGRSLRLSCAASGFTFSSYGMHWVRQAPGKGLEWVAVIWYDGSNKYYADSVKGRFTISRDNSKNTLYLQMNSLRAEDTAVYYCARDLAALYYYYGMHVWGQGTTVTVSS VL: EIVMTQSPATLSVSPGERATLSCRASQSFSSNLAWYQQKPGQAPRLLIYGASTRATGIPARFSGSGSGTEFTLTISSLQSEDFAVYYCQQNNNWPRTFGQGTKVEIK
0.53
anti-uPAR monoclonal antibody 1.4.2 (antibody, V domains shown) VH: EVQLVESGGGLVQPGGSLRLSCAASGFTFSSYDMHWVRQATGKGLEWVSAIGTAGDTYYPGSVKGRFTISRENAKNSLYLQMNSLRAGDTAVYYCAREGDYSNYFTMVRGVTYGMDVWGQGTTVTVSS VL: DIQLTQSPSSLCASVGDRITITCRASQGISKYLAWFQQKPGKAPKSLIYGASSLQSGVPAKFSGSGSGTDFTLTISSLQPEDFATYYCQQYNSYPLTFGGGTKVEIK
0.16

Please examine the following record next.
*Q* Would you mind telling me what LA at 20 ng/ml value was observed for fully human monoclonal antibody 4.18.1 (ATCC Accession Number PTA-7476) (antibody, V domains shown) VH: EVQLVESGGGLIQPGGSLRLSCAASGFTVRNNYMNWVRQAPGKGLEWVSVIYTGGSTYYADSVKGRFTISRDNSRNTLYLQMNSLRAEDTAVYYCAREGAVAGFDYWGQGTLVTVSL VL: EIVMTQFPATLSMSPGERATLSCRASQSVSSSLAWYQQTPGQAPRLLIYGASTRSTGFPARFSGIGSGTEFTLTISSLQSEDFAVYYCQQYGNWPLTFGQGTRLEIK ?
*A* 0.27
